Sourced from patent US9656953B2

Biological target: Rb:Raf-1 binding (Homo sapiens, UniProt P04049+P06400)
Construct: a glutathione S-transferase (GST) Raf-1 (1-149aa) overnight at 4° C; made in house
Sequence (P04049 1-149 limits assumed): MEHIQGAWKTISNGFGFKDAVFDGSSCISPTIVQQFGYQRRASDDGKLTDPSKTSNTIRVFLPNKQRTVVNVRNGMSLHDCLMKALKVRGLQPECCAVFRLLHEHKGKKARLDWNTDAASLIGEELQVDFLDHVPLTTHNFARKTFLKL
Sequence (P06400 whole entry): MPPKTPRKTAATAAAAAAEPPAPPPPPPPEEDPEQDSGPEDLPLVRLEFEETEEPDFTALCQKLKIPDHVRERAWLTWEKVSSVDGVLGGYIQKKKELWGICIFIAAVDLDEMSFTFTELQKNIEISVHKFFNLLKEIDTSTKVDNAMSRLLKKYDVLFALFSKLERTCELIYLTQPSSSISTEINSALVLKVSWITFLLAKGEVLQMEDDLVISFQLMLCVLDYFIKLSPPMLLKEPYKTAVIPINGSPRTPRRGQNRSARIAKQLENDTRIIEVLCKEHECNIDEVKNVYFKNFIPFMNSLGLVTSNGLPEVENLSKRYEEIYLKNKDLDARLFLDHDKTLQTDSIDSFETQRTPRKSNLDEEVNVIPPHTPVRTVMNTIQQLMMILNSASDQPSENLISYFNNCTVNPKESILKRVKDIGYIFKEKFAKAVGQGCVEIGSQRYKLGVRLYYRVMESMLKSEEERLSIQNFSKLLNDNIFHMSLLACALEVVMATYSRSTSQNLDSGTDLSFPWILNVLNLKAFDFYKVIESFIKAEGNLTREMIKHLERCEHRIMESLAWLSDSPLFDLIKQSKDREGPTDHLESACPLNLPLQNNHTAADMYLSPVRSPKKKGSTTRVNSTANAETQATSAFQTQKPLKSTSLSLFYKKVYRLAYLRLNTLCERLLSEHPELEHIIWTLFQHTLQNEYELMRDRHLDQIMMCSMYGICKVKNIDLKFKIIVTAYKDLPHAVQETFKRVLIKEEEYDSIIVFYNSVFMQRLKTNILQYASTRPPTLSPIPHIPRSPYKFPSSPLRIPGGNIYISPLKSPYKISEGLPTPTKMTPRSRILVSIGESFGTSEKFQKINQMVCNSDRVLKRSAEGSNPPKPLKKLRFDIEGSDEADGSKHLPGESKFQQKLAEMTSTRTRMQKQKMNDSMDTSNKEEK
Assay: GST-Rb/GST-Raf-1 ELISA
Conditions: inhibition of Rb:Raf-1 binding, compound at 20 μM; read-out: % Inhibition at 20 μM
reported_metric: inhibition at 20 µM (%)

Reference set, count: 4
smiles=CNc1nc(-c2ccc(Cl)cc2)cs1 reported_metric="inhibition at 20 µM" uom=% test_result=34
smiles=Clc1ccc(CSc2ncc[nH]2)cc1 reported_metric="inhibition at 20 µM" uom=% test_result=67
smiles=Clc1ccc(CSc2nnc[nH]2)cc1 reported_metric="inhibition at 20 µM" uom=% test_result=81
smiles=N=C(N)SCc1ccc([N+](=O)[O-])cc1 reported_metric="inhibition at 20 µM" uom=% test_result=46

[1] N=C(N)SCc1ccc2c(c1)C(=O)c1ccccc1C2=O
[2] CNc1scc(-c2ccc(Cl)cc2)[n+]1C
[3] Cl.N=C(N)SCc1ccc(Cl)c(Cl)c1
Rank the 3 molecules: largest inhibition at 20 µM first, smallest last. List labels; respect the requested ordering.
3, 1, 2
(3: 81%, 1: 56%, 2: 37%)

----------
Biological target: Rb:Raf-1 binding (Homo sapiens, UniProt P04049+P06400)
Construct: a glutathione S-transferase (GST) Raf-1 (1-149aa) overnight at 4° C; made in house
Assay: GST-Rb/GST-Raf-1 ELISA
Settings: inhibition of Rb:Raf-1 binding, compound at 20 μM; read-out: % Inhibition at 20 μM
reported_metric: inhibition at 20 µM (%)

[1] Cl.N=C(N)SCc1cccc(Cl)c1Cl
[2] Nc1nc(-c2ccc(Cl)cc2Cl)cs1
[3] CNc1scc(-c2ccc(F)cc2)[n+]1C
[4] Cl.N=C(N)SCc1c(Cl)cc(Cl)cc1Cl
Let's sort these by inhibition at 20 µM, smallest first. Go ahead? Kindly provide the labels arranged according to the requested ordering.
4, 3, 2, 1

----------
Molecular target: Rb:Raf-1 binding (Homo sapiens, UniProt P04049+P06400)
Construct: a glutathione S-transferase (GST) Raf-1 (1-149aa) overnight at 4° C; made in house
Test: GST-Rb/GST-Raf-1 ELISA
Settings: inhibition of Rb:Raf-1 binding, compound at 20 μM
reported_metric: % Inhibition at 20 μM (%)

smiles=Cl.N=C(N)SCc1ccc(Cl)c2ccccc12 reported_metric="% Inhibition at 20 μM" test_result=93

[1] Cl.N=C(N)NCc1ccccc1Cl
[2] N=C(N)NCc1ccccc1Cl
Would you let me know which has the greater % Inhibition at 20 μM value, 1 or 2 ? Please indicate the selected item by its label.
1
(1: 59%, 2: 25%)

----------
Biological target: Rb:Raf-1 binding (Homo sapiens, UniProt P04049+P06400)
Construct: a glutathione S-transferase (GST) Raf-1 (1-149aa) overnight at 4° C; made in house
Experiment: GST-Rb/GST-Raf-1 ELISA
Conditions: inhibition of Rb:Raf-1 binding, compound at 20 μM; read-out: % Inhibition at 20 μM
Experimental: In vitro library screening assays. Enzyme Linked ImmunoSorbent Assay (ELISA) 96-well plates were coated with 1 μg/mL of a glutathione S-transferase (GST) Raf-1 (1-149aa) overnight at 4° C. […] The amount of Rb bound to Raf-1 was detected by Rb polyclonal antibody (Santa Cruz Biotechnology, Santa Cruz, Calif.) 1:1000 incubated for 60 min at 37° C. […] Absorbance was read at 490 nanometers (nm). […]
reported_metric: inhibition at 20 µM (%)

compound="N=C(N)SCc1c2ccccc2cc2ccccc12 [Compound 5f]" test_result=22

[P] CNc1nc(-c2ccc(Cl)cc2Cl)cs1 [Compound 7g]
[Q] Cl.N=C(N)SCc1ccccc1 [Compound 3r]
[R] N=C(N)SCc1ccncc1 [Compound 5b]
Descending sort on inhibition at 20 µM required. Provide your answer as the labels ordered per the instruction.
R, P, Q

----------
Molecular target: Rb:Raf-1 binding (Homo sapiens, UniProt P04049+P06400)
Construct: a glutathione S-transferase (GST) Raf-1 (1-149aa) overnight at 4° C; made in house
Experiment: GST-Rb/GST-Raf-1 ELISA
Details: values in μM; read-out: IC50, Rb:Raf-1 binding
reported_metric: IC50 (µM)

[A] N=C(N)SCc1ccc(Cl)c(F)c1
[B] N=C(N)SCc1cccc(Cl)c1
[C] N=C(N)SCc1ccccc1Cl
From the records above, write out the order of decreasing IC50. Labels, requested order.
C, B, A

----------
Molecular target: Rb:Raf-1 binding (Homo sapiens, UniProt P04049+P06400)
Construct: a glutathione S-transferase (GST) Raf-1 (1-149aa) overnight at 4° C; made in house
Experiment: GST-Rb/GST-Raf-1 ELISA
Conditions: IC50 (nM), inhibition of the Rb:Raf-1 binding, concentration that inhibits the Rb:Raf-1 binding by 50%, triplicate
reported_metric: IC50 (nM)
Write down the numeric answer in nM and omit the unit.

Example entries begin here.
compound="Cl.N=C(N)SCc1ccc(Cl)c2ccccc12 [Compound 5c]" reported_metric=IC50 uom=nM test_result=1900
compound="N=C(N)SCc1ccc(Cl)cc1Cl [(1), 2,4-dichlorobenzyl carbamimidothioate]" reported_metric=IC50 uom=nM test_result=81

As a next step, examine the compound that follows.
Can you look up IC50 on Rb:Raf-1 binding (Homo sapiens, UniProt P04049+P06400) for N=C(N)SCc1ccc(Cl)c2ccccc12 [(2)] ?
283

----------
Biological target: Rb:Raf-1 binding (Homo sapiens, UniProt P04049+P06400)
Construct: a glutathione S-transferase (GST) Raf-1 (1-149aa) overnight at 4° C; made in house
Experiment: GST-Rb/GST-Raf-1 ELISA
Settings: inhibition of Rb:Raf-1 binding, compound at 20 μM; read-out: % Inhibition at 20 μM
Method: In vitro library screening assays. Enzyme Linked ImmunoSorbent Assay (ELISA) 96-well plates were coated with 1 μg/mL of a glutathione S-transferase (GST) Raf-1 (1-149aa) overnight at 4° C. […] The amount of Rb bound to Raf-1 was detected by Rb polyclonal antibody (Santa Cruz Biotechnology, Santa Cruz, Calif.) 1:1000 incubated for 60 min at 37° C. […] Absorbance was read at 490 nanometers (nm). […]
reported_metric: inhibition at 20 µM (%)

Worked cases, inhibition at 20 µM given:
molecule="N=C(N)SCc1ccc(Cl)c(C(F)(F)F)c1 [Compound 3f]" test_result=94
molecule="Nc1nnc(SCc2ccc(Cl)cc2Cl)[nH]1 [Compound 9b]" test_result=91
molecule="N=C(N)NCc1ccc(Cl)cc1Cl [Compound 6c]" test_result=61
molecule="Clc1ccc(CSc2nc3ccccc3[nH]2)c(Cl)c1 [Compound 9j]" test_result=40

[a] CCC(SC(=N)N)c1ccc(Cl)cc1Cl (stereo not shown) [Compound 4c]
[b] CNc1nc(-c2ccccc2)cs1 [Compound 7d]
When their inhibition at 20 µM values are compared, which is larger, a or b ? Please respond with the label that marks your chosen entry.
a

[P] CC(SC(=N)N)c1ccc(Cl)cc1Cl (stereo not shown) [Compound 4a]
[Q] Cc1ccc(CSC(=N)N)cc1 [Compound 3p]
Min inhibition at 20 µM? P | Q Identify your pick by its label.
Q
(Q: 44%, P: 100%)

[P] N=C(N)SCc1ccc(Cl)c(F)c1 [Compound 3c]
[Q] Clc1ccc(CSC2=NCCN2)cc1 [Compound 9g]
[R] Nc1nc(-c2ccccc2)cs1 [Compound 7j]
[S] Clc1ccc(CSc2ncc[nH]2)c(Cl)c1 [Compound 9e]
List by increasing inhibition at 20 µM. State the ranking by listing the labels in the requested order.
R, Q, S, P
(R: 22%, Q: 47%, S: 68%, P: 100%)

[1] COc1ccc(CSC(=N)N)cc1 [Compound 3o]
[2] N=C(N)SCc1ccc(Cl)cc1 [Compound 3g, 4-chlorobenzylisothiourea]
[3] N=C(N)SC(c1ccccc1)c1ccccc1 [Compound 4d]
Let's sort these by inhibition at 20 µM, smallest first. Go ahead? Form entry: ranked labels (order as requested).
3, 1, 2
(3: 21%, 1: 45%, 2: 88%)

[P] Nc1nc(-c2ccc(F)cc2F)cs1 [Compound 7e]
[Q] Nc1nnc(SCc2ccc(Cl)cc2)[nH]1 [Compound 9d]
Please tell me which of the two, P or Q , has the higher reported inhibition at 20 µM value. API: response body contains the label of the selected item.
Q
(Q: 76%, P: 39%)

[a] N=C(N)SCc1ccc2c(c1)OCO2 [Compound 3l]
[b] N=C(N)SCc1ccccc1Cl [Compound 3b, 2-chlorobenzylisothiourea]
Of a and b , whose reported inhibition at 20 µM is numerically smaller? // return label of chosen record
a

----------
Biological target: Rb:Raf-1 binding (Homo sapiens, UniProt P04049+P06400)
Construct: a glutathione S-transferase (GST) Raf-1 (1-149aa) overnight at 4° C; made in house
Assay: GST-Rb/GST-Raf-1 ELISA
Conditions: inhibition of Rb:Raf-1 binding, compound at 20 μM; read-out: % Inhibition at 20 μM
reported_metric: inhibition at 20 µM (%)

The examples below pair each entry with its known result.
smiles=Nc1nc(-c2ccc(Cl)cc2)cs1 test_result=29
smiles=N=C(N)SCc1ccc2ccccc2n1 test_result=76
smiles=CNc1nc(-c2ccc(F)cc2F)cs1 test_result=53
smiles=N=C(N)SCc1ccc2ccccc2c1Br test_result=100
smiles=COc1cc(CSC(=N)N)cc(OC)c1OC test_result=20

[a] N=C(N)SCc1cc(Cl)ccc1Cl
[b] CNc1nc(-c2ccc(F)cc2)cs1
Of a and b , whose reported inhibition at 20 µM is numerically smaller? Record your answer as the label of the chosen record.
b
(b: 43%, a: 79%)
